assay: Antiinflammatory activity in human neutrophils assessed as inhibition of fMLP/cytochalasin B-induced superoxide anion generation at 10 ug/mL; format: functional; settings: Neutrophil

{"COMPOUND": "O=C1C=C2CC3(OC(=O)c4ccccc4)COc4cc(OC(=O)c5ccccc5)ccc4C3=C2C=C1OC(=O)c1ccccc1 (stereo not given)", "inhibition at 10 µg/mL / %": 14.1}
{"COMPOUND": "CN(C)C(=O)OC1=CC2=C3c4ccc(OC(=O)N(C)C)cc4OCC3(O)CC2=CC1=O (stereo not given)", "inhibition at 10 µg/mL / %": 16.4}
{"COMPOUND": "COC1=CC2=C3c4ccc(OC)cc4OCC3(O)CC2=CC1=O (stereo not given)", "inhibition at 10 µg/mL / %": 18.6}
{"COMPOUND": "CCN(CC)C(=O)OC1=CC2=C3c4ccc(OC(=O)N(CC)CC)cc4OCC3(O)CC2=CC1=O (stereo not given)", "inhibition at 10 µg/mL / %": -7}
{"COMPOUND": "O=C1C=C2CC3(O)COc4cc(OCc5ccccc5)ccc4C3=C2C=C1OCc1ccccc1 (stereo not given)", "inhibition at 10 µg/mL / %": 33.4}

Provenance of the data: ChEMBL document CHEMBL1159056
